Provide the reported T/C of each item.
test system: CD2F1 mice, L1210 leukemia ip, survival T/C; experiment: NCI In Vivo Anticancer Drug Screen. Data for tumor model L1210 Leukemia (intraperitoneal) in CD2F1 (CDF1) mice; settings: endpoint: mean survival time; dose: 100.0 mg/kg/injection; schedule: Q04DX003 (ip); vehicle: saline with Tween-80; higher = longer survival
Toxic doses and inconclusive results are not listed.

// recorded T/C for COc1ccc(C(=O)O)c(N)c1 : 94 % of control

// recorded T/C for O=C(NC1CCc2ccccc21)c1ccccc1 (stereo unspecified) : 96 % of control

// recorded T/C for CN(C)NC(=O)CC(NCc1ccccc1)C(=O)O (stereo unspecified) : 102 % of control

// recorded T/C for CC1CC[N-]CC1.CC1CC[N-]CC1.CS(C)=O.[Cl][Rh]([Cl])[Cl] : 96 % of control

// recorded T/C for CCCCCCC(O)/C=C/c1ccc(Cl)cc1 (stereo unspecified) : 110 % of control

// recorded T/C for O=S(=O)(O)c1ccccc1N=Nc1c(S(=O)(=O)O)cc2cc(S(=O)(=O)O)c(N=Nc3ccccc3S(=O)(=O)O)c(O)c2c1O : 97 % of control

// recorded T/C for CCCCCCCCCCCCOB(OCCCCCCCCCCCC)OCCCCCCCCCCCC : 95 % of control

// recorded T/C for CC(C)(C)OC(=O)NC(Cc1cn(Cc2ccccc2)cn1)C(=O)O (stereo unspecified) : 95 % of control

// recorded T/C for O=C(O)C1CCC(CC2CCCCC2)CC1 (stereo unspecified) : 93 % of control

// recorded T/C for O=C1NC2(c3ccccc3)NC(=O)NC2(c2ccccc2)N1 (stereo unspecified) : 101 % of control

// recorded T/C for O=C(Nn1c(=O)c(=O)oc2ccccc21)C(F)(F)F : 96 % of control

====

system: CD2F1 mice, L1210 leukemia ip, survival T/C; assay: NCI In Vivo Anticancer Drug Screen. Data for tumor model L1210 Leukemia (intraperitoneal) in CD2F1 (CDF1) mice; conditions: endpoint: mean survival time; dose: 50.0 mg/kg/injection; schedule: Q04DX002 (ip); vehicle: saline with Tween-80; higher = longer survival
Toxic doses and inconclusive results are not listed.
Provide the reported T/C of each item.

// recorded T/C for CCC(O)(c1ccccc1)C(O)(CC)c1ccccc1 (stereo not given) : 96 % of control

// recorded T/C for O=C(CCC(O)c1ccccc1)c1ccccc1 (stereo not given) : 97 % of control

// recorded T/C for CCOC(=O)/C(O)=C\c1cc(OC)nnc1Cl : 101 % of control

// recorded T/C for Clc1ccccc1P(c1ccccc1)c1ccccc1 : 100 % of control

// recorded T/C for Cc1c(OCC(=O)O)cc(Cl)c(Cl)c1Cl : 105 % of control

// recorded T/C for CCN=C(N)C(N)=NCC (tested in a mixture with another compound) : 98 % of control

// recorded T/C for CCc1cccc(CC)c1NC(=S)NN : 96 % of control

// recorded T/C for CC(C)(C)c1ccc(SC(=O)c2ccc(C(=O)Sc3ccc(C(C)(C)C)cc3)cc2)cc1 : 87 % of control

// recorded T/C for CCN(CC)c1cc(Cl)ccc1Cl : 95 % of control

// recorded T/C for NCCOc1ccc(-n2cnc3c(=O)[nH]c(N)nc32)cc1 : 93 % of control
